Hello, the source for this data is PubChem BioAssay (NCI), in case you need it.

test system: IGROV1 ovarian; test: NCI-60 one-dose screen, 48 h (100 = growth as untreated, 0 = no growth, -100 = all killed); details: 10 µM
About 83,000 compounds went through this panel and 20% of them were active in at least one assay; those are over-represented in the sample as a whole.
Consider the cut-off 90%. If the recorded growth is strictly smaller, the label is Condition met; if not, the label is Condition not met.

Is 90% strictly greater than the compound's reported growth? compound: `Cc1nn(-c2ccccc2)c2ncn(CC(=O)N/N=C/c3c[nH]c4ccccc34)c(=O)c12`
Condition not met

# TODO verify growth < 90% strictly for this compound: `OCCCNc1oc(-c2ccccc2)nc1[P+](c1ccccc1)(c1ccccc1)c1ccccc1`
Condition met

Bench note: check whether `COc1ccc(C(=O)/C=C/c2ccc(Cl)c(C(F)(F)F)c2)cc1S(N)(=O)=O` shows growth below 90%
Condition met

Is the reported growth for `Nc1nc(-c2ccccc2)cs1` strictly below 90%?
Condition met

---

system: OVCAR-8 ovarian; assay: NCI-60 one-dose screen, 48 h (100 = growth as untreated, 0 = no growth, -100 = all killed); conditions: 10 µM
This is part of a sample that, as a whole, favours compounds with a hit. Of some 83,000 tested, about 20% had one in any assay.
PROPERTY LABEL: growth (%)
Give your result in % as a bare value.

# value lookup — system OVCAR-8 ovarian, readout growth, item `CN(C)c1nc(NCCNS(=O)(=O)c2ccc(C(=O)/C=C/c3ccccc3)cc2)nc(Nc2ccc(F)cc2)n1`
41.9

Give OVCAR-8 ovarian growth for `O=C(CNc1nc(-c2ccccc2)cs1)Nc1ccc(Br)cc1`
-5.23

Look up growth with OVCAR-8 ovarian for this molecule: `Nc1nc(-c2ccccc2)cs1`
37.7

Record `CCOC(=O)c1c(CSc2ccccc2)n(C)c2cc(CN(C)C)c(O)c(CN(C)C)c12` : what is its growth with OVCAR-8 ovarian?
30.4

Lookup: growth / OVCAR-8 ovarian / COc1ccc(C2N(c3ccc(Br)cc3)N=C(C(C)=O)N2[C@H]2[C@H](OC(C)=O)O[C@H](COC(C)=O)[C@@H](OC(C)=O)[C@@H]2OC(C)=O)cc1 (some centres not stated)
78

# returns recorded growth (system: OVCAR-8 ovarian) for `CCN1CCN(c2ccc(NC(=O)Nc3ccc4c(c3F)CCN4c3ccnc(C(=O)NC)c3)cc2C(F)(F)F)CC1`
-75.4

Give the reported growth for `O=C1NC(=NC23CC4CC(CC(C4)C2)C3)N/C1=C\c1ccc2ncsc2c1` (system: OVCAR-8 ovarian).
10.5

Param readout= growth; system= OVCAR-8 ovarian; entry= `Cc1cc2c(c(O)c1Br)-c1ncoc1C(=O)[C@]1(C)CC[C@H](C(C)C)[C@H]21` ; returns value.
32.6

// lookup growth | system=OVCAR-8 ovarian | key= `COc1cc(NC(=O)c2cc(-c3ccc(F)cc3F)ccc2O)cc(OC)c1OC`
48

growth of `CC(C)c1ccc(C(=O)Nc2sc3c(c2C(N)=O)CCC(=O)C3=O)cc1` on OVCAR-8 ovarian?
94.2

Query the reported growth for OVCAR-8 ovarian; item: `COc1ccc2[nH]c(O)c(N=NC(=O)COc3ccc(NC(=O)Nc4ccc(Cl)c(Cl)c4)cc3)c2c1`
-69.2

Missing value: growth, OVCAR-8 ovarian, entry `C/C(=N\NC(N)=S)c1ccc(Nc2nc(SC(C)C)nc(-c3ccccc3)c2C#N)cc1` . Fill in?
30.5

Query growth on OVCAR-8 ovarian for `Cc1ccc(-c2cc(C(=O)N=Nc3c(O)[nH]c4ccc(Br)cc34)c3ccccc3n2)cc1`
56.5

Please provide the recorded growth for `CN1CCN(c2ccc(C(=O)/C=C/c3cc(C(F)(F)F)ccc3Cl)cc2)CC1` , tested on OVCAR-8 ovarian.
-51.5

Field: growth (OVCAR-8 ovarian). Entry: `CC(=O)NCC1=C(C)C=C2C(=O)[C@](C)(O)C3(CC3)C(C)=C21`
-63.6

Report growth for `O=C(Nc1cccc(C(F)(F)F)c1)c1cncc(C#Cc2cnc3cccnn23)c1` tested on OVCAR-8 ovarian.
41

Could you share what growth was measured for `Clc1cccc(N/N=C/c2c[nH]c3ccccc23)n1` , tested on OVCAR-8 ovarian?
41

Test system OVCAR-8 ovarian; read-out growth; what value for `COc1ccc(CCN2C(=O)/C(=C/c3csc(C#N)n3)SC2=S)cc1OC` ?
69.2

Recall the recorded growth for `C=CCn1c(SCC(=O)Nc2ccc(C(=O)/C=C/c3ccccc3)cc2)nnc1-c1c[nH]c2ccccc12` with OVCAR-8 ovarian and state it.
64.7

Find the measured growth: item `N#Cc1ccc(-c2nn(-c3ccc(C(=O)O)cc3)cc2CNc2cccc(Br)c2)cc1` , target or system OVCAR-8 ovarian.
49

Given the entry C=C1CCC2C3(C)COC(c4c(F)cccc4F)OC3CCC2(C)C1CC(O)C1=CCOC1=O (configuration not stated) , what growth was observed with OVCAR-8 ovarian?
7.07

Hi! What's the reported growth for `Cc1cc(=O)oc2cc(OCCCCOc3ccc(/C=C/C(=O)Nc4cccc(Cl)c4)cc3)ccc12` on OVCAR-8 ovarian?
49.7

Query growth on OVCAR-8 ovarian for `O=C1NC(=NC2CCCCCC2)N/C1=C\c1ccc2ncoc2c1`
27.3

Query for OVCAR-8 ovarian: what growth does the record show for `O=C(CNc1nc(-c2ccccc2)cs1)Nc1ccccc1` ?
10

Form field - read-out: growth; system: OVCAR-8 ovarian; submitted item: `Cc1ccc(-c2cc(C(=O)N=Nc3c(O)[nH]c4ccccc34)c3ccccc3n2)cc1`
-15.8

So what growth did `CN1CCN(Cc2ccc(C(=O)Nc3cccc(Nc4ccc5c(O)cccc5n4)c3)cc2C(F)(F)F)CC1` get with OVCAR-8 ovarian?
-19.5

Reported growth for OVCAR-8 ovarian, given `CC(C)C1=C[C@@]23CC[C@@H]4[C@](C)(CCC[C@]4(C)C(=O)NCc4ccccc4)[C@H]2C[C@@H]1[C@H]1C(=O)CCC(=O)[C@H]13` ?
75.1

I'm curious: which growth was measured for `Cc1ccn2c(C(=O)c3ccc(Br)cc3)cc(-c3cc(-c4ccc(N(C)C)cc4)c(C#N)c(N)n3)c2c1` tested on OVCAR-8 ovarian?
38.2

Requested read-out growth, target or system OVCAR-8 ovarian, entry `COc1ccsc1/C=N/NC(=O)c1[nH]c2ccc(Br)cc2c1-c1ccccc1`
-16.2

API: value(readout=growth, system=OVCAR-8 ovarian) for record `C=CC(=O)Nc1ccc(C(=O)/C=C/c2ccc(N(C)CCF)cc2)c(O)c1`
-45.8

Field: growth (OVCAR-8 ovarian). Entry: `CCOC(=O)CNC(=O)CN(Cc1ccccc1)C(=O)[C@@]1(C)CCC[C@]2(C)[C@H]3C[C@H]4C(C(C)C)=C[C@]3(CC[C@H]21)[C@@H]1C(=O)OC(=O)[C@@H]14`
55.9

Item: `Cc1cc(C)nc(NS(=O)(=O)c2ccc(N/C(N)=N/c3nccc(-c4ccccc4)n3)cc2)n1` Test system: OVCAR-8 ovarian Read-out: growth Value: ?
77.7

Please state recorded growth (tested on OVCAR-8 ovarian) of `CCCCCc1ccc(S(=O)(=O)Nc2cc(-c3csc(N(C)C(C)=O)n3)ccc2N2CCN(C)CC2)cc1`
36

Notebook: pull reported growth for OVCAR-8 ovarian, entry CC1CC(c2ccc(N(C)C)cc2)=NN1c1nc(O)c(C2=c3cc(Br)ccc3=NC2=O)s1 (configuration not stated)
83

Tell me reported growth for `CC(C)CCSc1nc(NC2CC2)c(C#N)c(-c2ccc(C(C)C)cc2)n1` , tested with OVCAR-8 ovarian.
110

Request: growth, test system OVCAR-8 ovarian, entry `CC(C)C(=O)Nc1ccc(C(=O)NC(=S)Nc2ccc(C(=O)O)cc2)cc1`
111

Request - read-out growth | tested on OVCAR-8 ovarian | molecule `CN1C(=O)/C(=C/c2ccc3ncsc3c2)NC1=NC12CC3CC(CC(O)(C3)C1)C2`
16
